For each record, write down the corresponding GI50.
Tested on: HOP-18
Test protocol: NCI tumour cell line growth inhibition, 48 h
Calls of active or inactive are those of the source. Rule as the data show it: active = GI50 up to about 1.1 µM and inactive = higher.

# count of solved cases: 3
[[record]]
compound = "Nc1nc2[nH]c(=O)cnc2c(=O)[nH]1 [ISOXANTHOPTERIN]"
tested_on = "HOP-18"
result = "> 5.81 µM (inactive)"

[[record]]
compound = "COc1ccc2c(c1)C=C([N+](=O)[O-])C(C1OC(C)(C)OC1C1COC(C)(C)O1)O2 (stereo not given)"
tested_on = "HOP-18"
result = "24.7 µM (inactive)"

[[record]]
compound = "COc1ccc(C2CC(C)=Nc3c(O)nc(S)nc3N2)cc1 (stereo not given)"
tested_on = "HOP-18"
result = "62.7 µM (inactive)"


Hi! Can you tell me GI50 for each of these compounds?
1. Cn1c(=O)c2c(nc3n2C(CCl)CO3)n(C)c1=O (stereo not given)
2. Cc1cccc(NC(=O)C(=O)Cc2nc3ccccc3nc2O)c1C
3. COC(=O)c1c(-c2ccccc2)cc2c3cc(-c4ccccc4)c(C(=O)OC)n3c3ccccc3n12
4. Nc1nc(N)c(-c2ccccc2)c(C(=O)Nc2ccc(Cl)c(Cl)c2)n1

OUT:
1. > 100 µM (inactive)
2. > 100 µM (inactive)
3. > 100 µM (inactive)
4. > 100 µM (inactive)

Hi! Can you tell me GI50 for each of these compounds?
1. CNC(=S)N(C)C(=S)Nn1c(=O)c(C)nn(C)c1=S
2. O=C1C(Cl)C(c2ccc(O)cc2)N1n1cnc2ccccc2c1=O (stereo not given)
3. Nc1ccc(Cn2ccc3c4c(N)nc(N)nc4ccc32)cc1
4. O=C1/C(=C/c2ccccc2)CN(C(=O)OCc2ccccc2)C/C1=C\c1ccccc1
5. COC1OC(C)C(OC(=O)C(C)(C)C)C(OS(=O)(=O)c2ccc(C)cc2)C1OS(=O)(=O)c1ccc(C)cc1 (stereo not given)

OUT:
1: > 100 µM (inactive); 2: 49.4 µM (inactive); 3: 10.2 µM (inactive); 4: > 10 µM (inactive); 5: > 100 µM (inactive)

Hi! Can you tell me GI50 for each of these compounds?
1. O=C1c2ccccc2C(=O)c2c1oc1cc(O)c(Cl)cc21
2. CC(C)=CC1CC(=[N+]=[N-])C(=O)C1(C)C (stereo not given)
3. O=C1C=C(Nc2ccc(Cl)cc2C(=O)c2ccccc2)c2ccccc2C1=O
4. CCOC(=O)/C(Br)=C1/OC(=O)c2ccccc2-c2ccccc21.CCOC(=O)/C(Br)=C1\OC(=O)c2ccccc2-c2ccccc21
5. COC(=O)N/N=C(/c1nc2ccc([N+](=O)[O-])cc2nc1O)C(O)c1ccc(OC)c(OC)c1 (stereo not given)
6. CC(C)/C=C1\CCC(CN2CCOCC2)C1=O (stereo not given)
7. CC(=O)NNc1nc(C)c(C(=O)/C=C/c2cccc([N+](=O)[O-])c2)s1

OUT:
1: 1.73 µM (inactive); 2: > 100 µM (inactive); 3: > 100 µM (inactive); 4: 22 µM (inactive); 5: > 100 µM (inactive); 6: 17.7 µM (inactive); 7: > 100 µM (inactive)

IN: # get_value(readout='GI50', item= COc1ccc(Br)c2c1CC(C(=O)O)CC2 (stereo not given) )
OUT: > 100 µM (inactive)
